# target desc: HIV-integrase (Human immunodeficiency virus type 1 group M subtype B, UniProt P12497)
# Construct: Recombinant integrase (0.26 ng) was incubated with the beads
# experiment: HIV-Integrase Inhibition Activity (SPA strand transfer assay)
# applied conditions: recombinant integrase, biotin labeled substrate DNA on SPA beads, P33 labeled target DNA; read-out: Activity (IC50 class, HIV-integrase inhibition)
pIC50: −log10 of the molar value.
Reported pIC50 is given for each of the following compounds.

{"compound": "O=C(NCc1ccc(F)cc1-n1cncn1)c1nc2n(c(=O)c1O)CCN2C1CCCCC1 [Example 34]", "pIC50": "8.00 to 8.30"}
{"compound": "O=C(NCc1ccc(F)cc1)c1nc2n(c(=O)c1O)CCN2Cc1ccccc1 [Example 16]", "pIC50": "< 7.52"}
{"compound": "CS(=O)(=O)c1cc(F)ccc1CNC(=O)c1nc2n(c(=O)c1O)CCN2c1ccccc1 [Example 40]", "pIC50": "8.00 to 8.30"}
{"compound": "CCCCN1CCn2c1nc(C(=O)NCc1ccc(F)cc1S(=O)(=O)N(C)C)c(O)c2=O [Example 14]", "pIC50": "7.52 to 8.00"}
{"compound": "Cc1ncnn1-c1cc(F)ccc1CNC(=O)c1nc2n(c(=O)c1O)CCN2C(C)C [Example 10]", "pIC50": "< 7.52"}
{"compound": "CN(C)S(=O)(=O)c1cc(F)ccc1CNC(=O)c1nc2n(c(=O)c1O)CCN2C1CCCCC1 [Example 35]", "pIC50": "7.52 to 8.00"}
{"compound": "CC(C)N1CCn2c1nc(C(=O)NCc1ccc(F)cc1)c(O)c2=O [Example 4]", "pIC50": "7.52 to 8.00"}
{"compound": "O=C(NCc1ccc(F)cc1-n1cncn1)c1nc2n(c(=O)c1O)CCN2c1ccccc1 [Example 23]", "pIC50": "8.00 to 8.30"}
